target: Full-length human BclXL (residues 1-233) (human, UniProt Q07817-1 1-233); test: ITC
Sequence (Q07817 whole entry, the tested form may be a part): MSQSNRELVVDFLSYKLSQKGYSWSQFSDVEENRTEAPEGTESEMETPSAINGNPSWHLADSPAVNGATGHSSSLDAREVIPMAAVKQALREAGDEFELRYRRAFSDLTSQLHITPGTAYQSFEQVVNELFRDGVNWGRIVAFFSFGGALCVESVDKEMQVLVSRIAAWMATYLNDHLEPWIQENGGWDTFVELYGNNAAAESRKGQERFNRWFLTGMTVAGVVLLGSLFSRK
measurement.type: pKd
Convention used: pKd is expressed as -log10 of the molar concentration.

Short answer for DIIRNIARHLAQVGDSMDRS [Bid_BH3 peptide (20-mer spanning residues 81-100, the BH3 domain within human Bid)] : pKd was 4.69

Attribution: paper PMC3483416
